As an illustration, consider measured Kd for compounds on streptavidin (Streptomyces avidinii, UniProt P22629).
Sequence (P22629 25-183): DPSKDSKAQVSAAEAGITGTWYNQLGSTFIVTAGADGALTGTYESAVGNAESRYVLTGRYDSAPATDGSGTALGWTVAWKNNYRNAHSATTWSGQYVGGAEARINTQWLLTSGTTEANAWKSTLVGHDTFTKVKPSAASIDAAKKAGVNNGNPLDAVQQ
// return numeric value only (unit: nM, not printed)

[[record]]
compound = "NC(=O)CSC[C@H](NC(=O)[C@@H](CC1CCCCC1)NC(=O)[C@@H]1CCCN1Cc1cn([C@H](CC2CCC2)C(=O)N2Cc3cc(C(=O)N[C@@H](CSCC(N)=O)C(=O)NCCCCCC(=O)N[C@@H](CCCCNC(=O)c4ccc5c(c4)C(=O)OC54c5ccc(O)cc5Oc5cc(O)ccc54)C(N)=O)sc3C2)nn1)C(N)=O [Compound 8-L0]"
tested_target = "streptavidin (Streptomyces avidinii, UniProt P22629)"
recorded_result = 118


Now turn to the next compound.
Incoming: Please list Kd recorded for the compound CC(C)C[C@H](C(=O)N1Cc2cc(C(=O)N[C@@H](CSCC(N)=O)C(=O)NCCCCCC(=O)N[C@@H](CCCCNC(=O)c3ccc4c(c3)C(=O)OC43c4ccc(O)cc4Oc4cc(O)ccc43)C(N)=O)sc2C1)n1cc(CN2CCC[C@H]2C(=O)N[C@H](CC2CCCCC2)C(=O)N[C@@H](CSCC(N)=O)C(N)=O)nn1 [Compound 7-L0]
Outgoing: 173

---

Overview of reported pKd across a group of compounds:
- TESTED TARGET: UniProtKB P22629
pKd: −log10 of the molar value.

[[record]]
structure_as_smiles = "CC(C)C[C@@H]1C(=O)N2Cc3cc(sc3C2)C(=O)N[C@H](C(=O)NCCCCCC(=O)N[C@@H](CCCCNC(=O)c2ccc3c(c2)C(=O)OC32c3ccc(O)cc3Oc3cc(O)ccc32)C(N)=O)CSC/C=C\\CSC[C@@H](C(N)=O)NC(=O)[C@@H](CC2CCCCC2)NC(=O)[C@@H]2CCCN2Cc2cn1nn2"
measured_attribute = "pKd"
recorded_result = "< 5.30"


Incoming: Supply pKd measured with UniProtKB P22629 for CC(C)C[C@@H]1C(=O)N2Cc3cc(sc3C2)C(=O)N[C@H](C(=O)NCCCCCC(=O)N[C@@H](CCCCNC(=O)c2ccc3c(c2)C(=O)OC32c3ccc(O)cc3Oc3cc(O)ccc32)C(N)=O)CSC/C=C/CSC[C@@H](C(N)=O)NC(=O)[C@@H](CC2CCCCC2)NC(=O)[C@@H]2CCCN2Cc2cn1nn2 .
Outgoing: < 5.30

Incoming: Supply pKd measured with UniProtKB P22629 for CC(C)C[C@@H]1C(=O)N2Cc3cc(sc3C2)C(=O)N[C@H](C(=O)NCCCCCC(=O)N[C@@H](CCCCNC(=O)c2ccc3c(c2)C(=O)OC32c3ccc(O)cc3Oc3cc(O)ccc32)C(N)=O)CSCc2cccc(c2)CSC[C@@H](C(N)=O)NC(=O)[C@@H](CC2CCCCC2)NC(=O)[C@@H]2CCCN2Cc2cn1nn2 .
Outgoing: < 5.30
